Consider the following compounds and their measured viability, T/C readings.
- Tested on: 993429-296-R-J1-PDC complex spheroid growth, percent test/control
- assay overview: Anticancer human tumor 993429-296-R-J1-PDC patient-derived uterine sarcoma cell line growth inhibition [Asc]
- test settings: second compound 0.03 µM; first compound 1 µM; stronger effect = lower value
Give a bare numeral; the unit % is implied.

Consider the reported viability, T/C for these compounds:
{"compound": "C=CC(=O)N1CCN(c2nc(=O)n(-c3c(C)ccnc3C(C)C)c3nc(-c4c(O)cccc4F)c(F)cc23)C(C)C1 (centres undefined) + CCN1C(C(=O)NC23CCC(C(=O)O)(CC2)CC3)C(c2cccc(Cl)c2F)C2(C(=O)Nc3cc(Cl)ccc32)C12CCCCC2", "viability, T/C, %": 86.2}
{"compound": "O=C(c1ccc(F)c(F)c1Nc1ccc(I)cc1F)N1CC(O)([C@@H]2CCCCN2)C1 + CCN1C(C(=O)NC23CCC(C(=O)O)(CC2)CC3)C(c2cccc(Cl)c2F)C2(C(=O)Nc3cc(Cl)ccc32)C12CCCCC2", "viability, T/C, %": 1.77}
{"compound": "COc1c(OCCCN2CCOCC2)ccc2c3n(c(=NC(=O)c4cnc(N)nc4)nc12)CCN3 + CCN1C(C(=O)NC23CCC(C(=O)O)(CC2)CC3)C(c2cccc(Cl)c2F)C2(C(=O)Nc3cc(Cl)ccc32)C12CCCCC2", "viability, T/C, %": 1.31}

Attention now shifts to the item below.
Query: Return viability, T/C (reported value) for this compound: O=C(c1cc(Cc2n[nH]c(=O)c3ccccc23)ccc1F)N1CCN(C(=O)C2CC2)CC1 + CCN1C(C(=O)NC23CCC(C(=O)O)(CC2)CC3)C(c2cccc(Cl)c2F)C2(C(=O)Nc3cc(Cl)ccc32)C12CCCCC2
Reply: 100

###

Consider the following compounds and their measured viability, T/C readings.
- System: 993429-296-R-J1-PDC complex spheroid growth, percent test/control
- assay overview: Anticancer human tumor 993429-296-R-J1-PDC cell line growth inhibition [Asc];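 note: spheroids exposed to compounds for seven days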
- test settings: second compound 10 µM; first compound 0.1 µM; stronger effect = lower value
Give a bare numeral; the unit % is implied.

{"compound": "Cn1ncnc1[C@H]1c2n[nH]c(=O)c3cc(F)cc(c23)N[C@@H]1c1ccc(F)cc1 + Cc1c(S(C)(=O)=O)c(-c2cc(F)cc(N3CCN(c4ccc(NS(=O)(=O)c5ccc(NC(CCN6CCC(C(=O)OCCCP(=O)(O)O)CC6)CSc6ccccc6)c(S(=O)(=O)C(F)(F)F)c5)cc4)CC3)c2)c(-c2ccc(Cl)cc2)n1C(C)C", "test system": "993429-296-R-J1-PDC complex spheroid growth, percent test/control", "viability, T/C [%]": 9.31}
{"compound": "C=C(F)C(=O)N1CCN(c2nc(OCC3CCCN3C)nc3c2CCN(c2cccc4cccc(Cl)c24)C3)CC1CC#N (stereo not given) + Cc1c(S(C)(=O)=O)c(-c2cc(F)cc(N3CCN(c4ccc(NS(=O)(=O)c5ccc(NC(CCN6CCC(C(=O)OCCCP(=O)(O)O)CC6)CSc6ccccc6)c(S(=O)(=O)C(F)(F)F)c5)cc4)CC3)c2)c(-c2ccc(Cl)cc2)n1C(C)C", "test system": "993429-296-R-J1-PDC complex spheroid growth, percent test/control", "viability, T/C [%]": 108}
{"compound": "NC1CCC(NC2CC2c2ccccc2)CC1 (stereo not given) + Cc1c(S(C)(=O)=O)c(-c2cc(F)cc(N3CCN(c4ccc(NS(=O)(=O)c5ccc(NC(CCN6CCC(C(=O)OCCCP(=O)(O)O)CC6)CSc6ccccc6)c(S(=O)(=O)C(F)(F)F)c5)cc4)CC3)c2)c(-c2ccc(Cl)cc2)n1C(C)C", "test system": "993429-296-R-J1-PDC complex spheroid growth, percent test/control", "viability, T/C [%]": 36.8}
{"compound": "CNC(C)C(=O)NC1CN(S(=O)(=O)c2cccc(S(=O)(=O)N3CCC4CCC(C(=O)NC(c5ccccc5)c5ccccc5)N4C(=O)C(NC(=O)C(C)NC)C3)c2)CCC2CCC(C(=O)NC(c3ccccc3)c3ccccc3)N2C1=O (stereo not given) + Cc1c(S(C)(=O)=O)c(-c2cc(F)cc(N3CCN(c4ccc(NS(=O)(=O)c5ccc(NC(CCN6CCC(C(=O)OCCCP(=O)(O)O)CC6)CSc6ccccc6)c(S(=O)(=O)C(F)(F)F)c5)cc4)CC3)c2)c(-c2ccc(Cl)cc2)n1C(C)C", "test system": "993429-296-R-J1-PDC complex spheroid growth, percent test/control", "viability, T/C [%]": 56.8}
{"compound": "O=C(c1cc(Cc2n[nH]c(=O)c3ccccc23)ccc1F)N1CCN(C(=O)C2CC2)CC1 + Cc1c(S(C)(=O)=O)c(-c2cc(F)cc(N3CCN(c4ccc(NS(=O)(=O)c5ccc(NC(CCN6CCC(C(=O)OCCCP(=O)(O)O)CC6)CSc6ccccc6)c(S(=O)(=O)C(F)(F)F)c5)cc4)CC3)c2)c(-c2ccc(Cl)cc2)n1C(C)C", "test system": "993429-296-R-J1-PDC complex spheroid growth, percent test/control", "viability, T/C [%]": 85.8}

Query: Return viability, T/C (reported value) for this compound: C#Cc1c(F)ccc2cc(O)cc(-c3ncc4c(N5CC6CCC(C5)N6)nc(OCC56CCCN5CC(F)C6)nc4c3F)c12 (stereo not given) + Cc1c(S(C)(=O)=O)c(-c2cc(F)cc(N3CCN(c4ccc(NS(=O)(=O)c5ccc(NC(CCN6CCC(C(=O)OCCCP(=O)(O)O)CC6)CSc6ccccc6)c(S(=O)(=O)C(F)(F)F)c5)cc4)CC3)c2)c(-c2ccc(Cl)cc2)n1C(C)C
Reply: 98.8

Query: Return viability, T/C (reported value) for this compound: C=CC(=O)N1CCN(c2nc(=O)n(-c3c(C)ccnc3C(C)C)c3nc(-c4c(O)cccc4F)c(F)cc23)C(C)C1 (stereo not given) + Cc1c(S(C)(=O)=O)c(-c2cc(F)cc(N3CCN(c4ccc(NS(=O)(=O)c5ccc(NC(CCN6CCC(C(=O)OCCCP(=O)(O)O)CC6)CSc6ccccc6)c(S(=O)(=O)C(F)(F)F)c5)cc4)CC3)c2)c(-c2ccc(Cl)cc2)n1C(C)C
Reply: 81

Query: Return viability, T/C (reported value) for this compound: CCN1CCN(Cc2ccc(Nc3ncc(F)c(-c4cc(F)c5nc(C)n(C(C)C)c5c4)n3)nc2)CC1 + Cc1c(S(C)(=O)=O)c(-c2cc(F)cc(N3CCN(c4ccc(NS(=O)(=O)c5ccc(NC(CCN6CCC(C(=O)OCCCP(=O)(O)O)CC6)CSc6ccccc6)c(S(=O)(=O)C(F)(F)F)c5)cc4)CC3)c2)c(-c2ccc(Cl)cc2)n1C(C)C
Reply: 76.9

Query: Return viability, T/C (reported value) for this compound: O=C(c1ccc(F)c(F)c1Nc1ccc(I)cc1F)N1CC(O)([C@@H]2CCCCN2)C1 + Cc1c(S(C)(=O)=O)c(-c2cc(F)cc(N3CCN(c4ccc(NS(=O)(=O)c5ccc(NC(CCN6CCC(C(=O)OCCCP(=O)(O)O)CC6)CSc6ccccc6)c(S(=O)(=O)C(F)(F)F)c5)cc4)CC3)c2)c(-c2ccc(Cl)cc2)n1C(C)C
Reply: 3.49

Query: Return viability, T/C (reported value) for this compound: COc1c(OCCCN2CCOCC2)ccc2c3n(c(=NC(=O)c4cnc(N)nc4)nc12)CCN3 + Cc1c(S(C)(=O)=O)c(-c2cc(F)cc(N3CCN(c4ccc(NS(=O)(=O)c5ccc(NC(CCN6CCC(C(=O)OCCCP(=O)(O)O)CC6)CSc6ccccc6)c(S(=O)(=O)C(F)(F)F)c5)cc4)CC3)c2)c(-c2ccc(Cl)cc2)n1C(C)C
Reply: 1.24

FYI, the data here is from PubChem BioAssay AID1963446.
